# study-target: Recombinant M. tuberculosis MbtI (Mycobacterium tuberculosis, UniProt P9WFX1)
# Construct: made in house
# Sequence (P9WFX1 whole entry): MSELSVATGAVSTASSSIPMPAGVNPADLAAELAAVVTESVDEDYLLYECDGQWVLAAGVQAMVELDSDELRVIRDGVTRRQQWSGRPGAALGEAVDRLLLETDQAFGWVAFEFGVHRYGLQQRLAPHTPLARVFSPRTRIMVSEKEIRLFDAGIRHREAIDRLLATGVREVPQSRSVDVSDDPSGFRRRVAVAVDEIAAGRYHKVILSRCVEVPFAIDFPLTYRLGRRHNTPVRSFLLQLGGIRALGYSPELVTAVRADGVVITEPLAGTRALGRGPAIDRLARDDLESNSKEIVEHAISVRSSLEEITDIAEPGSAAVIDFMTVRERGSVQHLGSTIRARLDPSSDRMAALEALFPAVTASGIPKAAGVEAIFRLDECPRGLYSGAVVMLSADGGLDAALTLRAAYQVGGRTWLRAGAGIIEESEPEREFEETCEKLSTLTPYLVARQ
# procedure-details: MbtI enzymatic inhibition assay (fluorimetric, salicylic acid formation)
# Assay type: biochemical
# run-conditions: Table 2, furans IV–IX; only for compounds with %RA ≤ 25%; read-out: IC50
observed-property: pIC50
Notebook: values listed as pIC50 are -log10 of the concentration (mol/L).

N#Cc1cc(O)cc(-c2ccc(C(=O)O)o2)c1 [IX]    4.47
O=C(O)c1ccc(-c2cc(C(F)(F)F)cc(C(F)(F)F)c2)o1 [V]    4.73

What value of pIC50 has been reported for the following compound? N#Cc1cc(F)cc(-c2ccc(C(=O)O)o2)c1 [VI]
4.76

What value of pIC50 has been reported for the following compound? Cc1cc(C#N)cc(-c2ccc(C(=O)O)o2)c1 [VIII]
4.54

What value of pIC50 has been reported for the following compound? COc1cc(C#N)cc(-c2ccc(C(=O)O)o2)c1 [VII]
4.84

What value of pIC50 has been reported for the following compound? N#Cc1cc(-c2ccc(C(=O)O)o2)cc(C(F)(F)F)c1 [IV]
4.81

* * *

remaining activity at 100 µM by entry:
# study-target: Recombinant M. tuberculosis MbtI (Mycobacterium tuberculosis, UniProt P9WFX1)
# Construct: made in house
# procedure-details: MbtI enzymatic inhibition assay (fluorimetric, salicylic acid formation)
# Type: biochemical
# run-conditions: Table 2, furans IV–IX; compound 100 µM, 50 µM chorismic acid; read-out: % RA (% residual enzymatic activity at 100 µM)
Numbers only; they are read as %.

The following compounds have reported results that may help.
O=C(O)c1ccc(-c2cc(C(F)(F)F)cc(C(F)(F)F)c2)o1    8.9
COc1cc(C#N)cc(-c2ccc(C(=O)O)o2)c1    10.5
Cc1cc(C#N)cc(-c2ccc(C(=O)O)o2)c1    16.7
N#Cc1cc(F)cc(-c2ccc(C(=O)O)o2)c1    8.7
N#Cc1cc(-c2ccc(C(=O)O)o2)cc(C(F)(F)F)c1    0.7

Shift focus to the following entry.
What value of remaining activity at 100 µM has been reported for the following compound? N#Cc1cc(O)cc(-c2ccc(C(=O)O)o2)c1
15.3

* * *

remaining activity at 100 µM by entry:
# study-target: Recombinant M. tuberculosis MbtI (Mycobacterium tuberculosis)
# Construct: made in house
# procedure-details: MbtI enzymatic inhibition assay (fluorimetric, salicylic acid formation)
# Assay type: biochemical
# run-conditions: Series A R = m-CNPh; compound 100 µM, 50 µM chorismic acid; read-out: %RA (% residual enzymatic activity at 100 µM)
Numbers only; they are read as %.

The following compounds have reported results that may help.
N#Cc1cccc(-c2cnc(C(=O)[O-])s2)c1.[Na+]    24.8
N#Cc1cccc(-c2cnc(C(=O)O)[nH]2)c1    21.2
N#Cc1cccc(-c2ccc(C(=O)O)s2)c1    23.7

Query the reported remaining activity at 100 µM for Recombinant M. tuberculosis MbtI (Mycobacterium tuberculosis); item: N#Cc1cccc(-n2cc(C(=O)O)nn2)c1
67.9

Query the reported remaining activity at 100 µM for Recombinant M. tuberculosis MbtI (Mycobacterium tuberculosis); item: N#Cc1cccc(-c2cnc(C(=O)[O-])o2)c1.[Na+]
38

Query the reported remaining activity at 100 µM for Recombinant M. tuberculosis MbtI (Mycobacterium tuberculosis); item: N#Cc1cccc(-c2nnc(C(=O)O)o2)c1
75
